Test Target: DR4w4 (DRB1*0401) (Homo sapiens, UniProt P01903+P01911, A100K/A169T/F76Y/I96L/K127E/L162R/M171V/N62H/P40V/Q125Y/R42H/S133A/S149N/S66Y/V115G/V209L/W38E)
Run Description: biochemical
Type: binding
No end group written: not given here.
# maps each entry to its IC50
Please give a number only; it is taken to be in µM.

VVTIPNSVQISVGYM [Peptide 1601.41]	0.835
RGIIILLLIRFRCSK [Peptide 89.0063]	0.883
SRVIVCPTSIPSDQI [Peptide 90.0027]	1.91
RNLVDGNPISLDRKH [Peptide 89.0137]	1.04
FQVIELQMALETLSK [Peptide 89.0182]	0.224
SEVYDFVFADLRIVY [Peptide 1543.48]	0.62
SWGMVVLLLVRYKCG [Peptide 89.0005]	4.67
VMFLRYQGVEFMSFL [Peptide 89.0014]	0.927

Query block: Answer with the recorded IC50 of LYCYEQLSDSSDEDE [Peptide 1543.13] only.
Result block: 1.12

Query block: Answer with the recorded IC50 of IHFLKGCIISYVNSK [Peptide 89.0147] only.
Result block: 3.84

Hello, the source for this data is patent US9340577B2, in case you need it.
